Tested on: Lefty1
Test: Lefty1 binders on small-molecule microarrays, primary screen, biochemical, small-molecule microarray, 635/667 nm fluorescence (AID 1139)
Conditions: small-molecule microarray binding, fluorescence 635/667; higher = more signal
# binning rule on composite z-score: group A (below 0.3), group B (0.3 to below 0.7), group C (0.7 or more)

| COMPOUND | SUBJECT OF TEST | CLASS |
| --- | --- | --- |
| CC(C)=NOC(C)CN1CCCCc2nc(C)c(C)cc21 (stereo unspecified) | Lefty1 | group B |
| COC(=O)[C@H](C)NC(=O)CCC1CC(OC(=O)NCc2ccc3c(c2)OCO3)CC2(CCCC(COC(=O)NCc3ccccc3)O2)O1 (stereo partly specified) | Lefty1 | group C |
| COC(=O)CC=C[C@@H](C)[C@@H](C=NOC[C@@H](C)[C@H](OCc1ccccc1)C(C)C)NS(=O)(=O)c1ccc(C)cc1 | Lefty1 | group B |
| COc1ccc(O[C@H]2C=C[C@@H](c3ccccc3)O[C@@H]2CON=C(C)CCN2CCCc3nc(C)c(C)cc32)cc1 | Lefty1 | group B |
| C[C@H]1CC[C@@H](C(=O)O)N[C@@H]1c1cccc(N2CCCC2=O)c1 | Lefty1 | group A |
| COC(=O)[C@@H]1CC[C@H](C)[C@@H](c2ccc(Br)cc2)N1 | Lefty1 | group A |
| CC(C)=CCCC(C)=CCON=C1[C@H]2CCn3c(=O)n(-c4ccccc4)c(=O)n3[C@H]2[C@H](O)[C@@H]2O[C@H]12 | Lefty1 | group C |
| CN1CCc2nc(-c3ccccc3)c(-c3ccccc3)cc2C1 | Lefty1 | group A |
| CC(=O)OC[C@H]1O[C@H](CC=NOC(C)CN2CCCc3nc(C)c(C)cc32)C=C[C@@H]1OC(C)=O (stereo partly specified) | Lefty1 | group C |
| COc1ccc(OC[C@@H]2CC3[C@@H](c4ccc(Br)cc4)[C@H](C)CC[C@H]3C(=O)O2)cc1 (stereo partly specified) | Lefty1 | group C |
| C[C@H]1CC[C@H]2C(=O)N[C@H](Cc3ccccc3)C(=O)N2[C@@H]1c1ccccc1 | Lefty1 | group B |
